PROCEDURE SUMMARY: Cytotoxicity against human HepG2 cells assessed as viable cells at 12.5 microg/ml incubated for 24 hrs by CCK-8 assay
Assay type: toxicity, cell-based
CONDITION CONTEXT: at 12.5 µg/mL, read-out: Activity

{"MOLECULAR STRING": "C=C(C)[C@@H]1CCC(C)=C[C@H]1c1c(OCCCNC(=N)N)cc(CCCCC)cc1OCCCNC(=N)N", "viability at 24 h, 12.5 microg/ml": "91.3%"}

* * *

Tested on: Acinetobacter baumannii
PROCEDURE SUMMARY: Antibacterial activity against Acinetobacter baumannii ATCC 17978 assessed as inhibition of bacterial growth incubated for 24 hrs by broth dilution method
Type: functional
MEASURED METRIC: MIC

{"MOLECULAR STRING": "C=C(C)[C@@H]1CCC(C)=C[C@H]1c1c(OCCCCCCCCCCN)cc(CCCCC)cc1OCCCCCCCCCCN", "EXPERIMENTAL RESULT": "> 50 µg/mL"}
{"MOLECULAR STRING": "C=C(C)[C@@H]1CCC(C)=C[C@H]1c1c(OCCCCCBr)cc(CCCCC)cc1OCCCCCBr", "EXPERIMENTAL RESULT": "> 50 µg/mL"}
{"MOLECULAR STRING": "C=C(C)[C@@H]1CCC(C)=C[C@H]1c1c(OCCCCN(CCCC)CCCC)cc(CCCCC)cc1OCCCCN(CCCC)CCCC", "EXPERIMENTAL RESULT": "> 50 µg/mL"}
{"MOLECULAR STRING": "C=C(C)[C@@H]1CCC(C)=C[C@H]1c1c(OCCCCI)cc(CCCCC)cc1OCCCCI", "EXPERIMENTAL RESULT": "> 50 µg/mL"}
{"MOLECULAR STRING": "C=C(C)[C@@H]1CCC(C)=C[C@H]1c1c(OCCCCCCCCCCNC(=N)N)cc(CCCCC)cc1OCCCCCCCCCCNC(=N)N", "EXPERIMENTAL RESULT": "> 50 µg/mL"}
{"MOLECULAR STRING": "C=C(C)[C@@H]1CCC(C)=C[C@H]1c1c(OCCCCCCCCCCBr)cc(CCCCC)cc1OCCCCCCCCCCBr", "EXPERIMENTAL RESULT": "> 50 µg/mL"}
{"MOLECULAR STRING": "C=C(C)[C@@H]1CCC(C)=C[C@H]1c1c(OCCCCN(CC)CC)cc(CCCCC)cc1OCCCCN(CC)CC", "EXPERIMENTAL RESULT": "> 50 µg/mL"}

* * *

Measured MIC by item
Tested on: Acinetobacter baumannii
PROCEDURE SUMMARY: Antibacterial activity against Acinetobacter baumannii ATCC 17978 assessed as inhibition of bacterial growth incubated for 24 hrs by broth dilution method
Type: functional
MEASURED METRIC: MIC (µg/mL)

{"MOLECULAR STRING": "C=C(C)[C@@H]1CCC(C)=C[C@H]1c1c(OCCCCN2CCCC2)cc(CCCCC)cc1OCCCCN1CCCC1", "MEASURED METRIC": "MIC", "RELATION SIGN": "=", "EXPERIMENTAL RESULT": 25}
{"MOLECULAR STRING": "C=C(C)[C@@H]1CCC(C)=C[C@H]1c1c(OCC(=O)OCC)cc(CCCCC)cc1OCC(=O)OCC", "MEASURED METRIC": "MIC", "RELATION SIGN": ">", "EXPERIMENTAL RESULT": 50}
{"MOLECULAR STRING": "C=C(C)[C@@H]1CCC(C)=C[C@H]1c1c(OCCCCN(CCO)CCO)cc(CCCCC)cc1OCCCCN(CCO)CCO", "MEASURED METRIC": "MIC", "RELATION SIGN": ">", "EXPERIMENTAL RESULT": 50}
{"MOLECULAR STRING": "C=C(C)[C@@H]1CCC(C)=C[C@H]1c1c(OCCCBr)cc(CCCCC)cc1OCCCBr", "MEASURED METRIC": "MIC", "RELATION SIGN": ">", "EXPERIMENTAL RESULT": 50}
{"MOLECULAR STRING": "C=C(C)[C@@H]1CCC(C)=C[C@H]1c1c(OCCCNC(=N)N)cc(CCCCC)cc1OCCCNC(=N)N", "MEASURED METRIC": "MIC", "RELATION SIGN": "=", "EXPERIMENTAL RESULT": 3.12}
{"MOLECULAR STRING": "C=C(C)[C@@H]1CCC(C)=C[C@H]1c1c(O)cc(CCCCC)cc1O", "MEASURED METRIC": "MIC", "RELATION SIGN": ">", "EXPERIMENTAL RESULT": 50}
{"MOLECULAR STRING": "C=C(C)[C@@H]1CCC(C)=C[C@H]1c1c(OCCCCCCN)cc(CCCCC)cc1OCCCCCCN", "MEASURED METRIC": "MIC", "RELATION SIGN": "=", "EXPERIMENTAL RESULT": 3.12}
{"MOLECULAR STRING": "C=C(C)[C@@H]1CCC(C)=C[C@H]1c1c(OCCCCN(C)C)cc(CCCCC)cc1OCCCCN(C)C", "MEASURED METRIC": "MIC", "RELATION SIGN": "=", "EXPERIMENTAL RESULT": 6.25}

These entries and their values trace back to ChEMBL document CHEMBL5543084.
